- target-or-test-system: human TGR5 receptor (Homo sapiens)
- Sequence (Q8TDU6 1-330): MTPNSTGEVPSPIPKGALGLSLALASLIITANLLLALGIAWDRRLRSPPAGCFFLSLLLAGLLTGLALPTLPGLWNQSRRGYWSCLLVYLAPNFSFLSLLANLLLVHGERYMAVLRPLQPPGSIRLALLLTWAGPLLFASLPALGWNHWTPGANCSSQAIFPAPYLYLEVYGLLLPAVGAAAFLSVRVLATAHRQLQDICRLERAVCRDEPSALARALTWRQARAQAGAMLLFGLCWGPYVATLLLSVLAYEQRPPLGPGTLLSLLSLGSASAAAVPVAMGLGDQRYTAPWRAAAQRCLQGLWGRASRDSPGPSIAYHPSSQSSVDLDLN
- experimental-protocol: Human TGR5 cAMP production assay
- assay-conditions: human TGR5, luminescent cAMP assay; coded A-D; read-out: Human TGR5 Lum. cAMP Activity (EC50)
measurement-label: EC50

Request: Returns the measured EC50 for the input compound. Input: Cc1cnccc1-c1cccc([C@H](C)N(CCCCNC(=O)NCS(=O)(=O)O)S(=O)(=O)c2ccccc2C(F)(F)F)c1 [Compound 28AC]
Result: < 100 nM

Request: What about this compound? Cc1cnccc1-c1cccc([C@H](C)N(CCCC(=O)NCCNC(=O)[C@@H](N)CS(=O)(=O)O)S(=O)(=O)c2ccccc2C(F)(F)F)c1 [Compound 31AF]
Result: < 100 nM

Request: Likewise for Cc1cnccc1-c1cccc([C@H](C)NS(=O)(=O)c2ccccc2C(F)(F)F)c1 [Compound 5AR] ?
Result: < 100 nM

Request: What would you report for COc1cnccc1-c1cccc([C@H](C)NS(=O)(=O)c2ccccc2[N+](=O)[O-])c1 [Compound 2BP] ?
Result: < 100 nM

Request: Next record, please: Cc1cnccc1-c1cccc(C2CN(C(=O)CS(=O)(=O)O)CCN2S(=O)(=O)c2ccccc2C)c1 (stereo not drawn) [Compound 49AA]
Result: 100 to 999 nM

Request: And then COc1cnccc1-c1cccc(C(C)(C)NS(=O)(=O)c2cccc(C(F)(F)F)c2C)c1 [Compound 2BM] , what is it?
Result: < 100 nM

Request: Quick one: COc1cnccc1-c1cccc([C@@H](C)NS(=O)(=O)c2cccc(C(F)(F)F)c2)c1 [Compound 1BE]
Result: 100 to 999 nM

Request: Cc1nccc(-c2cccc([C@H](C)N(CCCC(=O)O)S(=O)(=O)c3cccc(Cl)c3C)c2)c1C [Compound 14AG] ?
Result: 100 to 999 nM

Request: Same for CCc1cnccc1-c1cccc([C@H](C)N(CCCC(=O)NCCS(=O)(=O)NCC(=O)O)S(=O)(=O)c2cccc(Cl)c2C)c1 [Compound 21AT]
Result: < 100 nM

Request: How about this compound: Cc1cnccc1-c1cccc(C(C)(C)N(CCCC(=O)NCCCS(=O)(=O)O)S(=O)(=O)c2cccc(Cl)c2C)c1 [Compound 20AD]
Result: < 100 nM

Request: Now try CC(C)(NS(=O)(=O)c1cccc(C(F)(F)F)c1)c1cccc(-c2ccncc2O)c1 [Compound 1AN] .
Result: 100 to 999 nM

Request: Thanks! And CCOc1cnccc1-c1cccc(C(C)(C)NS(=O)(=O)c2ccccc2C(F)(F)F)c1 [Compound 8AC] ?
Result: < 100 nM

Request: Entry to check: CCc1cnccc1-c1cccc([C@H](C)N(CCCC(=O)NC[C@@H](O)[C@H](O)[C@@H](O)[C@@H](O)CO)S(=O)(=O)c2cccc(Cl)c2C)c1 [Compound 20AN]
Result: < 100 nM

Request: Cc1cnccc1-c1cccc(C(C)(C)N(CCCNC(=O)NCCCS(=O)(=O)O)S(=O)(=O)c2cccc(Cl)c2C)c1 [Compound 29AC]
Result: < 100 nM

Request: Can you check Cc1cccc(S(=O)(=O)NCc2cccc(-c3c(C)noc3C)c2)c1 [Compound 2] next?
Result: 1000 to 30000 nM

Reference for the values: patent US11236055B2
